Biological target: rat CYP3A2, Cyp3a2 (gene 266682)
Assay: NVS_ADME_rCYP3A2: NovaScreen (NVS) CYP450-related Enzyme Activity (ADME) Assay for rat CYP3A2 (AID 2283128)
The source made the active and inactive calls. The calls were made as follows: active = hit-call score of the fitted dose curve at least 0.9, where 1 is the maximum; inconclusive = response in the unintended direction; inactive = score below 0.9.
Catalogue of AC50 values

INSERT INTO assay_data (molecule, studysystem, experimentalresult) VALUES
  ('CC(C)(C)C(O)C(Oc1ccc(Cl)cc1)n1cncn1 (stereo not given)', 'rat CYP3A2, Cyp3a2 (gene 266682)', '8.09 µM (active)'),
  ('CNC(=O)CSP(=S)(OC)OC', 'rat CYP3A2, Cyp3a2 (gene 266682)', '5.06 µM (active)');

Ask: I have this molecule here, `CCCN(CCOc1c(Cl)cc(Cl)cc1Cl)C(=O)n1ccnc1` , and I need its recorded AC50.
Result: 1.39 µM (active)

Ask: Reported AC50, molecule CC(C)(C)C(O)/C(=C\c1ccc(Cl)cc1Cl)n1cncn1 (stereo not given) : ____
Result: 0.669 µM (active)

Ask: Data request, read-out AC50, for `COc1nn(CSP(=S)(OC)OC)c(=O)s1`
Result: 0.774 µM (active)
